- assay notes: Retention in hydrophobic C18 column by HPLC
- condition details: Supplementary Fig 3d, logD7.4 vs tR
Starred links: 1 amine or outer side, 2 acyl side, 3 side chain; linkers in the order of their positions; H or OH if unused. Non-standard residues stand in square brackets, D forms with d. Residues, ends and D or L forms follow the SMILES beside them. X1 = CC(C)C[C@H](NC(=S)[C@H](Cc1ccc(O)cc1)N[*:1])C(=O)[*:2]; X3 = CC(C)C[C@H](N[*:1])C(=S)N[C@H](CC(C)C)C(=O)[*:2]; X4 = CC(C)C[C@H](N[*:1])C(=S)N1CCC[C@@H]1C(=O)[*:2]
reported metric: tR (min)
// units = min; emit number, no label

Study these solved cases before continuing.
compound	tR [min]
CC(C)C[C@@H]1NC(=O)[C@@H](CC(C)C)NC(=S)[C@H](CC(C)C)NC(=O)[C@H](Cc2ccc(O)cc2)NC(=O)[C@H]2CCCN2C(=O)[C@H](CC(C)C)NC1=O [10f] (cyclo(LL[dP]Y[X3]))	14
CC(C)C[C@@H]1NC(=O)[C@@H](CC(C)C)NC(=O)[C@H]2CCCN2C(=S)[C@H](CC(C)C)NC(=O)[C@@H](CC(C)C)NC(=O)[C@H](CC(C)C)NC(=O)[C@@H]2CCCN2C(=O)[C@@H](C)NC1=O [12b] (cyclo(L[dL][X4][dL]L[dA]P))	15.5
CC[C@H](C)[C@@H]1NC(=O)[C@@H]2CCCN2C(=O)[C@H]([C@@H](C)CC)NC(=O)[C@@H]2CCCN2C(=O)[C@H](Cc2ccccc2)NC(=O)[C@H](C)NC(=O)[C@H](C)NC1=O [compound 11, cyclo(-Ile^1-Ala-Ala-Phe-Pro-Ile-Pro^7-)] (cyclo(AAFPIPI))	5.299

// tR lookup, key: CC(C)C[C@@H]1NC(=O)[C@@H](CC(C)C)NC(=O)[C@H](CC(C)C)NC(=S)[C@H](Cc2ccc(O)cc2)NC(=O)[C@H]2CCCN2C(=O)[C@H](CC(C)C)NC1=O [10e] (cyclo(LL[dP][X1][dL])) 13.5

Hello, the source for this data is paper PMC10539501, in case you need it.
